assayed.system: T1, MPP6, Q9NZW5
T1 sequence (Q9NZW5 125-219, limits assumed, looked up): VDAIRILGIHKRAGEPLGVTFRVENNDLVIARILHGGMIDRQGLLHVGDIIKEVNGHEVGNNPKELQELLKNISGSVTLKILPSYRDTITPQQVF
experiment.summary: holdup assay
Set-up: key: below the threshold = too weak to quantify, mostly under pKd 3.1 to 4
test.settings: plain residues with an end cap or a label only (N-terminal biotin on a linker: ado-ado)

binder	pKd
EEPEERHTEL [CES2, O00748]	below the threshold
EDLTKNHDEL [RCN1, Q15293]	below the threshold
FVHPILQSAV [PRKCA, P17252]	below the threshold
